- target entity: human GR (glucocorticoid receptor) (Homo sapiens, UniProt P04150)
- Sequence (P04150 1-777): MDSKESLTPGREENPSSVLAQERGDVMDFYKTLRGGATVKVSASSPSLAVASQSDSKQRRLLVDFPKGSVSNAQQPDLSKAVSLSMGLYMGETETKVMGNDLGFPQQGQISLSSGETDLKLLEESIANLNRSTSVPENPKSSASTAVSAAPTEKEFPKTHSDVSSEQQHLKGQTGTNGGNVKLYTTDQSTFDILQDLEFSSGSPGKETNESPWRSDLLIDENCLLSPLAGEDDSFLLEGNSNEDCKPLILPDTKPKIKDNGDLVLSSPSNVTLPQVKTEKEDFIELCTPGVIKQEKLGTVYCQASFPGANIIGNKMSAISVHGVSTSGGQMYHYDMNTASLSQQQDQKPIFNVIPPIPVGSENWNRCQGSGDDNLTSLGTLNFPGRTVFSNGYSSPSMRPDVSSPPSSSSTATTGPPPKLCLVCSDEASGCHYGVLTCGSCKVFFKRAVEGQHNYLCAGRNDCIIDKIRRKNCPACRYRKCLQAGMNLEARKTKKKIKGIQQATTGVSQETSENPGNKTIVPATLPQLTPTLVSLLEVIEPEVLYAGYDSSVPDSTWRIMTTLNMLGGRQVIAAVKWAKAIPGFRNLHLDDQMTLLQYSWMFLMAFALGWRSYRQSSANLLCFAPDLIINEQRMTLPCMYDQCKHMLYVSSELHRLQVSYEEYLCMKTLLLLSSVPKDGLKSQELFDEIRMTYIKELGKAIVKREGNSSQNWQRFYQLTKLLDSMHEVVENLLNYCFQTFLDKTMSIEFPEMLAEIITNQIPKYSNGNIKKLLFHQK
- assay summary: Alternative Binding Assay Protocol (Method 2), GR
- conditions used: 293-GR lysate, 3H-dexamethasone
Each entry below carries its reported Ki.

See these solved cases before continuing.
| mol smiles | Ki |
| --- | --- |
| CC(C)(CN1CCOCC1)n1c(=O)[nH]c2cc(/C=C3/c4ccc(F)cc4OCc4c(F)cccc43)ccc21 | < 1000 nM |
| O=c1[nH]c2cc(/C=C3\c4ccccc4COc4cc(F)ccc43)ccc2n1C1CCNCC1 | < 1000 nM |
| CN1CCN(CCCn2c(=O)[nH]c3cc(/C=C4\c5ccccc5COc5cc(F)ccc54)ccc32)CC1 | < 500 nM |

Now look at this one.
Entry under review: O=c1[nH]c2cc(/C=C3\c4ccccc4COc4cc(F)ccc43)ccc2n1CCN1CCNCC1 . Reported Ki?
< 500 nM

====

Property: pKi; scope: individual compounds
- target entity: human GR (glucocorticoid receptor) (Homo sapiens)
- assay summary: Alternative Binding Assay Protocol (Method 2), GR
- conditions used: 293-GR lysate, 3H-dexamethasone
pKi: −log10 of the molar value.

| compound | target entity | observed value |
| --- | --- | --- |
| CCN1CC[C@H](n2c(=O)[nH]c3cc(/C=C4\c5ccc(F)cc5COc5cc(F)ccc54)ccc32)C1 [Example 33] | human GR (glucocorticoid receptor) (Homo sapiens) | > 6.30 |
| C[C@H](CN1CCOCC1)n1c(=O)[nH]c2cc(/C=C3\c4ccccc4COc4cc(F)ccc43)ccc21 [Example 10] | human GR (glucocorticoid receptor) (Homo sapiens) | > 6.30 |
| CN1CC[C@H](n2c(=O)[nH]c3cc(/C=C4\c5ccc(F)cc5COc5cc(F)ccc54)ccc32)C1 [Example 32] | human GR (glucocorticoid receptor) (Homo sapiens) | > 6.30 |

Please find the next compound below.
Need pKi, item CCN1CC[C@@H](n2c(=O)[nH]c3cc(/C=C4\c5ccc(F)cc5COc5cc(F)ccc54)ccc32)C1 [Example 5]
> 6.30
